- Assay type: in vivo, Japanese subjects (human)
- conditionNotes: both, human, plasma, po, 150 mg, median tmax, renal impairment groups; single oral 150 mg, fasting
measurementType: Tmax (h)
Record the value in h, omitting the unit from your answer.

Enquiry: Given the molecule "NC(=O)c1cnc2[nH]ccc2c1N[C@@H]1[C@@H]2CC3C[C@H]1C[C@@](O)(C3)C2" , what is its reported Tmax?
Return: 1.5

---

- Format: in vivo, Japanese subjects (human)
- conditionNotes: both, human, plasma, po, 150 mg, median tmax, across the renal function groups; fasting conditions; single oral 150 mg
measurementType: Tmax

Enquiry: Given the compound "NC(=O)c1cnc2[nH]ccc2c1N[C@@H]1[C@@H]2CC3C[C@H]1C[C@@](O)(C3)C2" , what is its reported Tmax?
Return: 1.5 to 1.75 h
